- Protocol details: Single dose study (001 Study) Part A: plasma PK of compound A
- Format: in vivo
- Test settings: human; plasma at 9 h after single oral 2.5 mg, healthy subjects (Part A); read-out: C9 Mean(SD)
- Procedure: This was a randomized, double-blind, placebo- and active-controlled, sequential, single-dose study. The study consisted of two parts, Part A (healthy subjects) and Part B (otherwise healthy subjects with primary insomnia). […] Plasma concentrations of compound A were measured using a validated liquid chromatography-mass spectrometry/mass spectrometry (LC-MS/MS) assay.
Reported metric: concentration at 9 h
Write the numeric value and append its unit.

# molecule `Cc1ncc(OC[C@@]2(c3cccc(F)c3)C[C@H]2C(=O)Nc2ccc(F)cn2)c(C)n1` ; its concentration at 9 h = 1.54 ng/mL

----------
- Protocol details: Multiple ascending dose study (002 Study): plasma PK
- Assay type: in vivo, human
- Test settings: human, oral; plasma at 8 h, Day 1, 75 mg; read-out: C8 Mean(SD)
Reported metric: concentration at 8 h (ng/mL)
Hi! Could you send only the number? It should be in ng/mL, unit omitted.

# concentration at 8 h (compound: `Cc1ncc(OC[C@@]2(c3cccc(F)c3)C[C@H]2C(=O)Nc2ccc(F)cn2)c(C)n1` ) is 54.5

----------
- Protocol details: Multiple ascending dose study (002 Study): plasma PK
- Type: in vivo, human
- Test settings: human, plasma, oral, 2.5 mg, Day 1, 2.5 mg once daily in the evening; read-out: tmax Median
Reported metric: Tmax (h)
A number alone suffices; assume h.

For reference, reported Tmax for `Cc1ncc(OC[C@@]2(c3cccc(F)c3)C[C@H]2C(=O)Nc2ccc(F)cn2)c(C)n1` stands at 2.02

----------
- Protocol details: Multiple ascending dose study (002 Study): plasma PK
- Assay type: in vivo, human
- Test settings: human, plasma, oral, 5 mg, Day 1, 5 mg once daily in the evening; read-out: tmax Median
Reported metric: Tmax

The recorded Tmax for `Cc1ncc(OC[C@@]2(c3cccc(F)c3)C[C@H]2C(=O)Nc2ccc(F)cn2)c(C)n1` is 1.25 h

----------
- Protocol details: Single dose study (001 Study) Part A: plasma PK of compound A
- Type: in vivo
- Test settings: human, plasma, po, 100 mg, single oral 100 mg, healthy subjects (Part A); read-out: t1/2 Median (converted)
Reported metric: half-life

Sample Cc1ncc(OC[C@@]2(c3cccc(F)c3)C[C@H]2C(=O)Nc2ccc(F)cn2)c(C)n1 [Compound A] ; half-life observed: 59.8 h

----------
- Protocol details: Single daily dose PK in human subjects (summary statements)
- Assay type: in vivo
- Test settings: plasma, oral, single 5 mg daily dose, read-out: mean t1/2 (converted)
Reported metric: half-life

For reference, reported half-life for Cc1ncc(OC[C@@]2(c3cccc(F)c3)C[C@H]2C(=O)Nc2ccc(F)cn2)c(C)n1 [Compound A] stands at ~31 h

----------
- Protocol details: Single dose study (001 Study) Part A: plasma PK of compound A
- Assay type: in vivo
- Test settings: human, plasma, po, 10 mg, single oral 10 mg, healthy subjects (Part A); read-out: AUC(0-t) Mean(SD)
Reported metric: AUC(0-t)

Looking up `Cc1ncc(OC[C@@]2(c3cccc(F)c3)C[C@H]2C(=O)Nc2ccc(F)cn2)c(C)n1` , I found its AUC(0-t) recorded as 284 ng·h/mL

----------
- Protocol details: Crossover study of relative bioavailability of tablet versus capsule (005 Study): plasma PK
- Format: in vivo, human
- Test settings: human, plasma, po, 25 mg, plasma at 8 h, single oral 25 mg Capsule; read-out: C8 Mean(SD)
Reported metric: concentration at 8 h (ng/mL)
Give the value in ng/mL but do not write ng/mL after it.

The molecule identified as `Cc1ncc(OC[C@@]2(c3cccc(F)c3)C[C@H]2C(=O)Nc2ccc(F)cn2)c(C)n1` registered its concentration at 8 h at 19.9

----------
- Protocol details: Multiple ascending dose study (002 Study): plasma PK
- Assay type: in vivo, human
- Test settings: human, plasma, oral, 50 mg, Day 1, 50 mg once daily in the evening; read-out: Cmax Mean(SD)
- Method: A total of 48 healthy adult subjects (18 to 55 years) were to be enrolled into 1 of 6 cohorts sequentially in a gradual dose escalation manner, and randomized to receive either compound A or compound A-matched placebo in the evening 30 minutes before habitual bedtime, and after 3 hours fasting, for 14 days. Each cohort was to comprise 6 compound A-treated subjects and 2 placebo-treated subjects. […]
Reported metric: Cmax (ng/mL)
I only need the number, in ng/mL, no unit after it.

Quick note, Cmax for `Cc1ncc(OC[C@@]2(c3cccc(F)c3)C[C@H]2C(=O)Nc2ccc(F)cn2)c(C)n1` landed at 199

----------
- Protocol details: Single dose study (001 Study) Part A: plasma PK of compound A
- Assay type: in vivo
- Test settings: human, plasma, po, 2.5 mg, single oral 2.5 mg, healthy subjects (Part A); read-out: AUC(0-inf) Mean(SD)
Reported metric: AUC(0-inf) (ng·h/mL)
Quick note: give the figure in ng·h/mL, leave out the unit.

AUC(0-inf) reported for this compound `Cc1ncc(OC[C@@]2(c3cccc(F)c3)C[C@H]2C(=O)Nc2ccc(F)cn2)c(C)n1` : 79.7

----------
- Protocol details: Multiple ascending dose study (002 Study): plasma PK
- Type: in vivo, human
- Test settings: human, plasma, oral, 50 mg, Day 14, 50 mg once daily for 14 days; read-out: AUC(0-24) Mean(SD)
Reported metric: AUC(0-t)
Numeric answer plus unit only.

Measured AUC(0-t), `Cc1ncc(OC[C@@]2(c3cccc(F)c3)C[C@H]2C(=O)Nc2ccc(F)cn2)c(C)n1` : 2300 ng·h/mL

----------
- Protocol details: Single dose study (001 Study) Part A: plasma PK of compound A
- Type: in vivo
- Test settings: human, plasma, po, 2.5 mg, single oral 2.5 mg, healthy subjects (Part A); read-out: Cmax Mean(SD)
Reported metric: Cmax (ng/mL)
Answer in ng/mL, number only, no unit symbol.

Given item Cc1ncc(OC[C@@]2(c3cccc(F)c3)C[C@H]2C(=O)Nc2ccc(F)cn2)c(C)n1 [Compound A] , the value recorded as its Cmax is 15.9

----------
- Protocol details: Single dose study (001 Study) Part A: plasma PK of compound A
- Assay type: in vivo
- Test settings: human, plasma, po, 50 mg, single oral 50 mg, healthy subjects (Part A); read-out: AUC(0-24) Mean(SD)
Reported metric: AUC from 0 to 24 h (ng·h/mL)
Give the value in ng·h/mL but do not write ng·h/mL after it.

Short answer for Cc1ncc(OC[C@@]2(c3cccc(F)c3)C[C@H]2C(=O)Nc2ccc(F)cn2)c(C)n1 [Compound A] : AUC from 0 to 24 h was 1110

----------
- Protocol details: Multiple ascending dose study (002 Study): plasma PK
- Type: in vivo, human
- Test settings: human, plasma, oral, 10 mg, Day 14, 10 mg once daily for 14 days; read-out: Cmax Mean(SD)
Reported metric: Cmax

Data point: Cc1ncc(OC[C@@]2(c3cccc(F)c3)C[C@H]2C(=O)Nc2ccc(F)cn2)c(C)n1 [Compound A] ; Cmax = ~47 ng/mL

----------
- Protocol details: Crossover study of relative bioavailability of tablet versus capsule (005 Study): plasma PK
- Type: in vivo, human
- Test settings: human, plasma, po, 25 mg, single oral 25 mg Capsule, healthy adults; read-out: AUC(0-72) Mean(SD)
Reported metric: AUC(0-t) (ng·h/mL)
Just the number please, in ng·h/mL, no unit attached.

For this compound ( Cc1ncc(OC[C@@]2(c3cccc(F)c3)C[C@H]2C(=O)Nc2ccc(F)cn2)c(C)n1 [Compound A] ), measured AUC(0-t) is 803

----------
- Protocol details: Single dose study (001 Study) Part A: plasma PK of compound A
- Type: in vivo
- Test settings: human, plasma, po, 25 mg, single oral 25 mg, healthy subjects (Part A); read-out: Cmax Mean(SD)
Reported metric: Cmax
Answer format: number, then unit.

Record Cc1ncc(OC[C@@]2(c3cccc(F)c3)C[C@H]2C(=O)Nc2ccc(F)cn2)c(C)n1 [Compound A] , field Cmax: 108 ng/mL

----------
- Protocol details: Crossover study of relative bioavailability of tablet versus capsule (005 Study): plasma PK
- Type: in vivo, human
- Test settings: human, plasma, po, 2.5 mg, plasma at 8 h, single oral 2.5 mg Tablet; read-out: C8 Mean(SD)
- Procedure: Single-center, open-label, randomized crossover study was conducted to evaluate, in healthy adult subjects, the bioavailability of single solid oral doses of compound A in tablet formulation relative to single oral doses of compound A in capsule formulation at 2.5, 10, and 25 mg. […] Plasma concentrations of compound A were measured using a validated liquid chromatography-tandem mass spectrometry (LC-MS/MS) assay. […]
Reported metric: concentration at 8 h (ng/mL)
Answer with a number only, understood to be in ng/mL.

Recorded concentration at 8 h (molecule `Cc1ncc(OC[C@@]2(c3cccc(F)c3)C[C@H]2C(=O)Nc2ccc(F)cn2)c(C)n1` ): 1.75
